Test system: Pfotenoedem
Assay: Rat paw oedema test after oral administration (anti-inflammatory effect)
Type: in vivo, Ratte
Details: 50 mg/kg
attribute.measured: Hemmeffekt % (%)
Give just the number in %; leave the unit off.

Just so you know, measured Hemmeffekt % for CC(C)(C)COC(=O)COC(=O)Cc1ccccc1Nc1c(Cl)cccc1Cl [Beispiel 24] came out at 33

Just so you know, measured Hemmeffekt % for CC(C)(C)COC(=O)Cc1ccccc1Nc1c(Cl)cccc1Cl [Beispiel 16] came out at 36

Just so you know, measured Hemmeffekt % for CC(C)Cc1ccc(C(C)C(=O)OCC(C)(C)CO)cc1 (centres unmarked) [Beispiel 11] came out at 47

Just so you know, measured Hemmeffekt % for CC(C)(CO)COC(=O)c1ccccc1Nc1cccc(C(F)(F)F)c1 [Beispiel 1, Flufenaminsäureneopentylglykolmonoester] came out at 55

Just so you know, measured Hemmeffekt % for CC(C(=O)O)c1ccc(C(=O)c2cccs2)cc1 (centres unmarked) [Suprofen, 2-[4-(2-Thenoyl)phenyl]-propionsäure, reference compound] came out at 20

Just so you know, measured Hemmeffekt % for CC(C)Cc1ccc(C(C)C(=O)O)cc1 (centres unmarked) [Ibuprofen, 2-(4-Isobutylphenyl)-propionsäure, reference compound] came out at 35

Just so you know, measured Hemmeffekt % for CC(C(=O)O)c1ccc(-c2ccccc2)c(F)c1 (centres unmarked) [Flurbiprofen, 2-(2-Fluor-4-biphenylyl)-propionsäure, reference compound] came out at 40

Just so you know, measured Hemmeffekt % for O=C(O)c1ccccc1Nc1cccc(C(F)(F)F)c1 [Flufenaminsäure, N-(α,α,α-Trifluor-m-tolyl)anthranilsäure, reference compound] came out at 33
